These data points were gathered from patent US20110217237A1.

- Target Desc: T1, cynomolgus monkey DLL4 extracellular domain (cynomolgus monkey)
- T1 construct: extracellular domain; also called cynoDLL4 ECD; Cyno DLL4
- Test Description: SPR (Biacore)
Measure: pKd
A value of pKd is the negative decimal logarithm of a concentration given in moles per litre.

Field: example entries. Status: answers known.
h1A11.A6 (antibody, V domains shown, also called h1A11.A6 VH / h1A11VL.1) VH: EVQLVESGGGLVQPGGSLRLSCAASGFTFRHFPMAWVRQAPGKGLEWVATISSSDAWPSYRDSVKGRFTISRDNAKNSLYLQMNSLRAEDTAVYYCSRGYYNSPFAYWGQGTLVTVSS VL: DIQMTQSPSSLSASVGDRVTITCRASEDIYSNLAWYQQKPGKAPKLLIYDTNNLADGVPSRFSGSGSGTDFTLTISSLQPEDFATYYCQQYNNYPPTFGQGTKLEIK = 9.92
h1A11.A12 (antibody, V domains shown, also called h1A11VH.1 / h1A11.A12 VL) VH: EVQLVESGGGLVQPGGSLRLSCAASGFTFSNFPMAWVRQAPGKGLEWVATISSSDGTTYYRDSVKGRFTISRDNAKNSLYLQMNSLRAEDTAVYYCARGYYNSPFAYWGQGTLVTVSS VL: DIQMTQSPSSLSASVGDRVTITCRASQDIYYNLAWYQQKPGKSPKLLIFDTSSLADGVPSRFSGSGSGTDFTLTISSLQPEDFATYFCQQYDWYPPTFGQGTKLEIK = 8.00
h1A11.C6 (antibody, V domains shown, also called h1A11.C6 VH / h1A11VL.1) VH: EVQLVESGGGLVQPGGSLRLSCAASGFTFRNFPMAWVRQAPGKGLEWVATISSSDGWPTYRDSVKGRFTISRDNAKSSLYLQMNSLRAEDTAVYYCSRGYYNSPFAYWGQGTLVTVSS VL: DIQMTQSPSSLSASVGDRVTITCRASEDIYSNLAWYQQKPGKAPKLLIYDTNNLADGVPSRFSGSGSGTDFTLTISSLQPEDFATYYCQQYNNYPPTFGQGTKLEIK = 9.74

Request: Provide measured pKd value, entry: h1A11.B4 (antibody, V domains shown, also called h1A11VH.1 / h1A11.B4 VL) VH: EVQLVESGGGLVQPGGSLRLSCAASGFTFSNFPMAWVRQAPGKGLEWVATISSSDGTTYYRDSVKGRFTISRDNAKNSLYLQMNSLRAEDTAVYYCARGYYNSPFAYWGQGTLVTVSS VL: DIQMTQSPSSLSASVGDRVTITCRASQDIYYNLAWYQQKPGKAPKLLIFDTNILADGVPSRFSGSGSGTDFTLTISSLQPEDFATYFCQQYDYVPPTFGQGTKLEIK
Result: 8.16
